Origin of measurements: patent US20230242521A1

tested on: Mia-PaCa2 pancreatic cancer cell line (mutation RONΔ160 type); assay: MTS assay, cell growth inhibitory ability, Mia-PaCa2; format: cell-based; settings: Homo sapiens; Mia-PaCa-2, RON mutation Δ160, cultured 72 hours
Structures can show the parent of a compound that is named as a salt.
readout: pIC50
Please note pIC50 is a logarithmic value: minus log10 of concentration in mol/L. Answer with that number alone.

These recorded examples may help you get a feel for the data.
compound: CCOc1ccn(-c2ccc(F)cc2)c(=O)c1C(=O)Nc1ccc(Oc2ccnc3cc(-c4ccc(CN5CCOCC5)cn4)sc23)c(F)c1.Cl [Example 1, hydrochloride]
pIC50: 6.21
--
compound: CCOc1ccn(-c2ccc(F)cc2)c(=O)c1C(=O)Nc1ccc(Oc2ccnc(N)c2Cl)c(F)c1 [Positive control 1, reference compound]
pIC50: 5.22
--
compound: CCOc1ccn(-c2ccccc2)c(=O)c1C(=O)Nc1ccc(Oc2ccnc3cc(-c4ccc(CNCCOC)cn4)sc23)c(F)c1 [Example 2, hydrochloride]
pIC50: 5.74
--
compound: COc1cc2c(Oc3ccc(NC(=O)c4c5c(cn(-c6ccc(F)cc6)c4=O)CCO5)cc3F)ccnc2cc1OCCN1CCOCC1
pIC50: 6.43

q: Which pIC50 reading was recorded for the compound CCOc1ccn(-c2ccccc2)c(=O)c1C(=O)Nc1ccc(Oc2ccnc3cc(-c4ccc(CN5CCN(C)CC5)cn4)sc23)c(F)c1 [Example 3, hydrochloride] ?
a: 6.60

q: Moving on to the next compound: COc1cc2c(Oc3ccc(NC(=O)c4c5c(cn(-c6ccc(F)cc6)c4=O)CCO5)cc3F)ccnc2cc1OCCCN1CC(C#N)C1
a: 6.82
